As shown below, each of these molecules has a reported Percent Effect value.
- Test system: Trypanosoma brucei
- ASSAY_COMMENT: Trypanosoma brucei 72 hour study
- Type: functional, organism-based
- Set-up: scale not given: in the data most compounds retested in dose-response had high values
- ASSAY_SETUP: 30 µM; 30.03 µM
Screen size: about 66,000 compounds; about 960 (1.5%) showed an effect of 50% or more. What follows is part of a selection rich in strong results, with near analogues and random picks from the rest.
Give the value, in units of %, as a plain number.

Example entries begin here.
MOLECULE	Percent Effect / %
CN(Cc1ccccc1)C1COC2(CCN(Cc3nccs3)CC2)C1.O=C(O)C(F)(F)F (stereo unspecified)	56.78
Cn1cc(CN2CCCC(CCc3ccccc3C(F)(F)F)C2)cn1 (stereo unspecified)	-18.52
Cc1ccc(CNCc2ccc(-n3nc(C)cc3C)nc2)cc1	-12.87
O=C(O)C(F)(F)F.O=C(c1ccccc1)N1CCC2(CCCN2c2ncccn2)CC1	-3.287
COc1cc(C(=O)N(Cc2ccco2)C2CC2)cc(OC)c1OC	-6.757

Now for another entry.
Fill in the blank: the reported Percent Effect of CN(Cc1ccccn1)C1COC2(CCN(Cc3nccs3)CC2)C1 (stereo unspecified) is ____.
58.22

Origin of measurements: ChEMBL document CHEMBL3988442
